Quick list: IC50 per entry.
Biological target: human KDR (VEGF-receptor-2) (Homo sapiens)
Construct: beginning at Met-806; (5′-ATG GAT CCA GAT GM CTC CCA TTG) and ending at Val-1356; made in house
Experiment: KDR kinase enzyme assay wash-out experiments (irreversible inhibition)
Type: biochemical
Conditions: wash out
Description: To determine if compounds bound irreversibly to enzyme, plates were washed after the enzyme plus compound pre-incubation step and prior to the addition of ATP. Parallel plates were tested wherein one plate was processed exactly as above while a second plate was washed three times in 100 μl of 4 mM HEPES, pH 7.4, to remove unbound compound. 1× Kinase buffer (30 μl of 1 mM MnCl2, 4 mM HEPES, pH 7.4, 20 μM Na3VO4) and 20 μl of ATP/MgCl2 were added to the wash-out plate. […]
Your answer should be a plain number; it is taken to be in nM.

Study these solved cases before continuing.
COMPOUND	UNIT LABEL	IC50
COCCOc1cc2ncc(C#N)c(NC3=CC(=O)C(Oc4ccc(-n5ccnc5)cc4)=CC3=O)c2cc1OC [Example 72]	nM	73.7
COCCOc1cc2ncnc(NC3=CC(=O)C(N(C)c4ccc(N(C)C)cc4)=CC3=O)c2cc1OC [Example 75]	nM	161
COc1cc2ncnc(NC3=CC(=O)C=C(C)C3=O)c2cc1OC [Example 7]	nM	1.2

What does the data say about its IC50? Entry: COCCOc1cc2ncnc(NC3=CC(=O)C(OCCN(C)c4ccccc4)=CC3=O)c2cc1OC [Example 222]
128

* * *

target: human KDR (VEGF-receptor-2) (Homo sapiens, UniProt P35968); construct: beginning at Met-806; (5′-ATG GAT CCA GAT GM CTC CCA TTG) and ending at Val-1356; made in house; assay: KDR kinase enzyme assay (DELFIA, KDR-IC-Flag, poly(Glu4-Tyr) peptide); format: biochemical; details: Concentration 1000 nM; ATP conc. 10 μM; read-out: % Inhibition
Sequence (P35968 806-1356): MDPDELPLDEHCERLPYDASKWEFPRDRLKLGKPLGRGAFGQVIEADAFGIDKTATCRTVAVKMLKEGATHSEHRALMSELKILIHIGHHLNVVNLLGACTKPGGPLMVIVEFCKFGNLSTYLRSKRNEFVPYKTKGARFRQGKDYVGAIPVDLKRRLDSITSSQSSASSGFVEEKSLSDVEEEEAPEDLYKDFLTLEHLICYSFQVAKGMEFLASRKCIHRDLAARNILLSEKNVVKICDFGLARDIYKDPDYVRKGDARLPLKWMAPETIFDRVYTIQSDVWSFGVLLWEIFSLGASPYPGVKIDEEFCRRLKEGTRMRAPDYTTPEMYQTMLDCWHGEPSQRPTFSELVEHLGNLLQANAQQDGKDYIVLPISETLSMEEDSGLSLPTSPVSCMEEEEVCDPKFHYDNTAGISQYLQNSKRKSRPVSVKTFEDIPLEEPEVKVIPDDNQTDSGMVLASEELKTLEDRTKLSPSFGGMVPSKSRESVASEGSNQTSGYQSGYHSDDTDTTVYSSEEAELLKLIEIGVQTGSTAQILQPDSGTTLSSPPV
Quick list: inhibition at 1 µM per entry.
Your answer should be a plain number; it is taken to be in %.

Study these solved cases before continuing.
COMPOUND	inhibition at 1 µM / %
COCCOc1cc2ncnc(NC3=CC(=O)C(Oc4ccc(C)cc4)=CC3=O)c2cc1OC	93
COCCOc1cc2ncnc(NC3=CC(=O)C(Oc4ccc(C(=O)OCc5ccccc5)cc4)=CC3=O)c2cc1OC	93
COCCOc1cc2ncc(C#N)c(NC3=CC(=O)C(Oc4ccccc4)=CC3=O)c2cc1OC	85

Which measured inhibition at 1 µM belongs to COc1cc2ncnc(NC3=CC(=O)C(N(C)c4ccccc4)=CC3=O)c2cc1OC , tested on human KDR (VEGF-receptor-2) (Homo sapiens, UniProt P35968)?
62

Which measured inhibition at 1 µM belongs to COCCOc1cc2ncnc(NC3=CC(=O)C(Oc4ccccc4OCc4ccccc4)=CC3=O)c2cc1OC , tested on human KDR (VEGF-receptor-2) (Homo sapiens, UniProt P35968)?
95

Which measured inhibition at 1 µM belongs to COCCOc1cc2ncnc(NC3=CC(=O)C(Sc4ccccc4)=CC3=O)c2cc1OC , tested on human KDR (VEGF-receptor-2) (Homo sapiens, UniProt P35968)?
92

Which measured inhibition at 1 µM belongs to COCCOc1cc2ncnc(NC3=CC(=O)C(Oc4cccc(C#N)c4)=CC3=O)c2cc1OC , tested on human KDR (VEGF-receptor-2) (Homo sapiens, UniProt P35968)?
96

Which measured inhibition at 1 µM belongs to COCCOc1cc2ncnc(NC3=CC(=O)C(Oc4ccc(C)cc4-c4ccno4)=CC3=O)c2cc1OC , tested on human KDR (VEGF-receptor-2) (Homo sapiens, UniProt P35968)?
94

Which measured inhibition at 1 µM belongs to COCCOc1cc2ncnc(NC3=C(Sc4ccccc4)C(=O)C=C(OC)C3=O)c2cc1OC , tested on human KDR (VEGF-receptor-2) (Homo sapiens, UniProt P35968)?
2

Which measured inhibition at 1 µM belongs to COc1cc2ncnc(NC3=CC(=O)C(N4CCCCC4)=CC3=O)c2cc1OC , tested on human KDR (VEGF-receptor-2) (Homo sapiens, UniProt P35968)?
72

* * *

Quick list: inhibition at 1 µM per entry.
target: KDR (Homo sapiens, UniProt P35968); test: cell-based; conditions: read-out: % Inhibition of KDR kinase autophosphorylation in KDR15 cells, compound conc. 1000 nM
Sequence (P35968 20-1356): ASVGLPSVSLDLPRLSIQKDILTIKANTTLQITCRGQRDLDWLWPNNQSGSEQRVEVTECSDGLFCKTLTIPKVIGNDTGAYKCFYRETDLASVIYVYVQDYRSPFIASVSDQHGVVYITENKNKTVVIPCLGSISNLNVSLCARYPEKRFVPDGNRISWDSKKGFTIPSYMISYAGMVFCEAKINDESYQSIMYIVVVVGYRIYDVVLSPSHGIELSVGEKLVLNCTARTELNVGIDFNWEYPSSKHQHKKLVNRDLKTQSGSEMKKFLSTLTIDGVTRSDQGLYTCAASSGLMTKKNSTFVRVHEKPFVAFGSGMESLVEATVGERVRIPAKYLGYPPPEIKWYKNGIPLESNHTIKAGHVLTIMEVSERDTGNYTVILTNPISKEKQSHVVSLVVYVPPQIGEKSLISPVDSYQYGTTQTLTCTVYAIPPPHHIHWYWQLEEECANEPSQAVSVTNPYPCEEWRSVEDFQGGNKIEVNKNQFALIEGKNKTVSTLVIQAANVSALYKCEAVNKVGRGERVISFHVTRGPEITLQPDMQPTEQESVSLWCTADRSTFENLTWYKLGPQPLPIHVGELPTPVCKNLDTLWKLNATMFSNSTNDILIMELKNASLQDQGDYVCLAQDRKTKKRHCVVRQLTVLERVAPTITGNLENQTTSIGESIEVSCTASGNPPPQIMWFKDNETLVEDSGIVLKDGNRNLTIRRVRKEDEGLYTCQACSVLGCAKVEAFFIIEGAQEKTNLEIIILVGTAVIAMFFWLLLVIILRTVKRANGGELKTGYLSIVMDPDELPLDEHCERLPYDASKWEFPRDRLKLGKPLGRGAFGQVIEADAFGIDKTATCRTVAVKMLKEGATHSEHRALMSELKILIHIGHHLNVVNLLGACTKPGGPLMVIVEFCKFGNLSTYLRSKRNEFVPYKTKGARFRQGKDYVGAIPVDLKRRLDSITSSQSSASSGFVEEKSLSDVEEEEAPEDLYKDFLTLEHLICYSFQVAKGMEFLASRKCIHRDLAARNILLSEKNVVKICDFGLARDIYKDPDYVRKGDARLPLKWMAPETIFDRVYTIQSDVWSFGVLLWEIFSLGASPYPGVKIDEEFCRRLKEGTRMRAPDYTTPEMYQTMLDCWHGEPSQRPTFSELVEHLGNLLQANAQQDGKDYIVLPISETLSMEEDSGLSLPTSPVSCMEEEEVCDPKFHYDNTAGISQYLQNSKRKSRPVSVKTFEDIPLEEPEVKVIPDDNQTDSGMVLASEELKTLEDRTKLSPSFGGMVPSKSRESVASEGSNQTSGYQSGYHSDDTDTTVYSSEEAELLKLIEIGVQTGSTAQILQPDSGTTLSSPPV
Your answer should be a plain number; it is taken to be in %.

COCCOc1cc2ncnc(NC3=CC(=O)C(Oc4cccc(C#N)c4)=CC3=O)c2cc1OC 25
COCCOc1cc2ncnc(NC3=CC(=O)C(OCc4ccccc4)=CC3=O)c2cc1OC 26
COCCOc1cc2ncnc(NC3=CC(=O)C(Oc4ccc(C(=O)Cc5ccccc5)cc4)=CC3=O)c2cc1OC 90

Now for another entry.
What does the data say about its inhibition at 1 µM? Entry: COc1cc2ncnc(NC3=CC(=O)C(N4CCOCC4)=CC3=O)c2cc1OC
4

* * *

target: human KDR (VEGF-receptor-2) (Homo sapiens); construct: beginning at Met-806; (5′-ATG GAT CCA GAT GM CTC CCA TTG) and ending at Val-1356; made in house; assay: KDR kinase enzyme assay (DELFIA, KDR-IC-Flag, poly(Glu4-Tyr) peptide); format: biochemical; details: ATP conc. 100 μM
QUANTITY NAME: IC50
Just the number plus its unit, please.

What does the data say about its IC50? Entry: CCC1=CC(=O)C(Nc2ncnc3cc(OC)c(OC)cc23)=CC1=O [Example 8]
200 nM

* * *

QUANTITY NAME: melting point

Study these solved cases before continuing.
MOLECULE	RESULT
COc1cc2ncnc(NC3=CC(=O)C(c4ccccc4)=CC3=O)c2cc1OC	200 to 205 °C
COCCOC1=CC(=O)C(Nc2ncnc3cc(OCCOC)c(OC)cc23)=CC1=O	211 to 212 °C
COCCOc1cc2ncnc(NC3=CC(=O)C(Br)=CC3=O)c2cc1OC	200 to 210 °C

What does the data say about its melting point? Entry: COc1cc2ncnc(NC3=CC(=O)C(N4CCCCC4)=CC3=O)c2cc1OC
226 to 227 °C

What does the data say about its melting point? Entry: COCCOc1cc2ncnc(NC3=CC(=O)C4(Cc5ccccc5)OC4C3=O)c2cc1OC (centres unmarked)
104 to 108 °C

What does the data say about its melting point? Entry: COCCOc1cc2ncnc(NC3=CC(=O)C(OCc4ccccc4)=CC3=O)c2cc1OC
218 to 220 °C

What does the data say about its melting point? Entry: COc1cc2c(NC3=CC(=O)C(Cl)=CC3=O)ncnc2cc1OCC1CCCCO1 (centres unmarked)
215 to 220 °C

What does the data say about its melting point? Entry: COc1cc2ncnc(NC3=CC(=O)C4(C(C)C)OC4C3=O)c2cc1OC (centres unmarked)
188 to 190 °C

* * *

target: human KDR (VEGF-receptor-2) (Homo sapiens, UniProt P35968); construct: beginning at Met-806; (5′-ATG GAT CCA GAT GM CTC CCA TTG) and ending at Val-1356; made in house; experiment: KDR kinase enzyme assay (DELFIA, KDR-IC-Flag, poly(Glu4-Tyr) peptide); type: biochemical; settings: Concentration 1000 nM; ATP conc. 10 μM; read-out: % Inhibition
QUANTITY NAME: inhibition at 1 µM (%)
Your answer should be a plain number; it is taken to be in %.

Study these solved cases before continuing.
COMPOUND	QUANTITY NAME	NUMERIC READOUT
COCCOc1cc2ncnc(NC3=CC(=O)C(Oc4cccnc4)=CC3=O)c2cc1OC [Example 91]	inhibition at 1 µM	96
COc1cc2ncnc(NC3=CC(=O)C(C)=CC3=O)c2cc1OC [Example 4]	inhibition at 1 µM	15
COCCOc1cc2ncnc(NC3=CC(=O)C(Oc4ccc(C(=O)/C=C/c5ccccc5)cc4)=CC3=O)c2cc1OC [Example 55]	inhibition at 1 µM	93
CCOC(=O)c1c(C)[nH]c2ccc(OC3=CC(=O)C(Nc4ncnc5cc(OCCOC)c(OC)cc45)=CC3=O)cc12 [Example 45]	inhibition at 1 µM	93
COCCOc1cc2ncnc(NC3=C(SCc4ccccc4)C(=O)C=C(OC)C3=O)c2cc1OC [Example 19]	inhibition at 1 µM	88
CNC1=CC(=O)C(Nc2ncnc3cc(OC)c(OC)cc23)=CC1=O [Example 89]	inhibition at 1 µM	18
COc1cc2ncnc(NC3=CC(=O)C(Nc4ccccc4)=CC3=O)c2cc1OC [Example 86]	inhibition at 1 µM	93
COc1cc2ncnc(NC3=CC(=O)C(C(C)C)=CC3=O)c2cc1OC [Example 9]	inhibition at 1 µM	58
COCCOc1cc2ncc(C#N)c(NC3=CC(=O)C(Oc4ccc(-n5ccnc5)cc4)=CC3=O)c2cc1OC [Example 72]	inhibition at 1 µM	93
COCCOc1cc2ncnc(NC3=CC(=O)C(N(C)c4cccc(F)c4)=CC3=O)c2cc1OC [Example 74]	inhibition at 1 µM	89

What does the data say about its inhibition at 1 µM? Entry: COCCOc1cc2ncnc(NC3=CC(=O)C(Oc4ccc5c(c4)[nH]c4ccccc45)=CC3=O)c2cc1OC [Example 41]
92

What does the data say about its inhibition at 1 µM? Entry: COCCOc1cc2ncnc(NC3=CC(=O)C(N(C)c4ccc(OC)c(OC)c4)=CC3=O)c2cc1OC [Example 73]
30
